Where do these numbers come from? They come from paper PMC6214665.

Assay: MRC5 cell proliferation counterscreen
Assay type: cell-based
Settings: human, MRC5 cells, MRC5 EC50, cytotoxicity, human cell line
pEC50: −log10 of the molar value.
recorded_endpoint: pEC50

query_smiles	pEC50
Cc1noc(C)c1-c1ccc2[nH]c(=O)nc(-c3ccccc3)c2c1	< 4.30
O=c1nc(-c2ccccc2)c2cc(-c3ccc(C(F)(F)F)nc3)ccc2[nH]1	< 4.30
O=c1nc(C2CCCCC2)c2cc(-c3cc[nH]n3)ccc2[nH]1	< 4.30
CNC(=O)c1cccc(-c2ccc3[nH]c(=O)nc(-c4ccccc4)c3c2)c1	< 4.30

Could you tell me which pEC50 is on file for O=c1nc(-c2ccccc2)c2cc(N3CCNCC3)ccc2[nH]1 ?
< 4.60

---

Test: MRC5 cell proliferation counterscreen
Format: cell-based
Details: human, MRC5 cells, MRC5 EC50, cytotoxicity, human cell line
Items are presented alongside their recorded EC50.

Could you tell me which EC50 is on file for Cc1ccncc1-c1ccc2[nH]c(=O)nc(-c3ccccc3)c2c1 ?
> 50 µM

Repeat with O=c1nc(-c2ccccc2)c2cc(-c3cc[nH]n3)ccc2[nH]1
> 50 µM

Repeat with Cc1ccc2[nH]c(=O)nc(-c3ccccc3)c2c1
> 50 µM

Repeat with O=c1nc(-c2ccccc2)c2cc(-c3cccnc3)ccc2[nH]1
> 50 µM

Repeat with Cn1nccc1-c1ccc2[nH]c(=O)nc(-c3ccccc3)c2c1
> 50 µM

Repeat with N#Cc1ccc(-c2cccc3[nH]c(=O)nc(-c4ccccc4)c23)cc1
> 50 µM

Repeat with O=c1nc(-c2ccccc2)c2cc(-c3cccc(F)c3)ccc2[nH]1
> 50 µM

Repeat with O=c1nc(-c2ccccc2)c2ccc(-c3cccnc3)cc2[nH]1
> 50 µM

Repeat with O=c1nc(-c2ccccc2)c2ccc(-c3ccncc3)cc2[nH]1
> 50 µM
